# credit: patent US20100047841A1

Quick reference for % Inhibition of [3H]dolastatin 10 binding by 5 μM test agent among some compounds
tested on: bovine brain tubulin (peptide/depsipeptide site); experiment: Inhibition of [3H]dolastatin 10 binding to tubulin (centrifugal gel filtration); settings: 5 μM test agent, 10 μM radiotracer, 10 μM tubulin, 30 min room temperature
Counter-ions that a name gives are not always drawn.
Unit % implied. Number only.

[[record]]
compound = "CC[C@]1(O)C[C@H]2CN(CCc3c([nH]c4ccccc34)[C@@](C(=O)OC)(c3cc4c(cc3OC)N(C=O)[C@H]3[C@@](O)(C(=O)OC)[C@H](OC(C)=O)[C@]5(CC)C=CCN6CC[C@]43[C@@H]65)C2)C1 [vincristine, reference compound]"
measurement = 21

[[record]]
compound = "CCC(C)[C@H](NC(=O)[C@H]1CCCCN1C)C(=O)N(C)[C@H](C[C@@H](OC(C)=O)c1nc(C(=O)N[C@@H](Cc2ccccc2)C[C@H](C)C(=O)O)cs1)C(C)C (some centres unmarked) [WZY-III-63C, trifluoroacetic acid salt]"
measurement = 31

[[record]]
compound = "CC[C@]1(O)C[C@@H]2CN(CCc3c([nH]c4ccccc34)[C@@](C(=O)OC)(c3cc4c(cc3OC)N(C)[C@H]3[C@@](O)(C(=O)OC)[C@H](OC(C)=O)[C@]5(CC)C=CCN6CC[C@]43[C@@H]65)C2)C1 [vinblastine, reference compound]"
measurement = 5

[[record]]
compound = "CCC(C)[C@H](NC(=O)CN(C)C)C(=O)N(C)[C@H](C[C@H](OC(C)=O)c1nc(C(=O)N[C@@H](Cc2ccccc2)C[C@H](C)C(=O)O)cs1)C(C)C (some centres unmarked) [WZY-III-64A]"
measurement = "−11"


Attention now turns to another entry.
Form: compound = CCC(C)[C@H](NC(=O)CN(C)C)C(=O)N(C)[C@H](C[C@@H](OC(C)=O)c1nc(C(=O)N[C@@H](Cc2ccccc2)C[C@H](C)C(=O)O)cs1)C(C)C (some centres unmarked) [WZY-III-69A] ; % Inhibition of [3H]dolastatin 10 binding by 5 μM test agent = 4

###

tested on: bovine brain tubulin (vinca domain); assay: Inhibition of [3H]vinblastine binding to tubulin (centrifugal gel filtration); conditions: 5 μM test agent, 10 μM radiotracer, 10 μM tubulin, 30 min room temperature
Structures can show the parent of a compound that is named as a salt.
Quick reference for % Inhibition of [3H]vinblastine binding by 5 μM test agent among some molecules
Unit % implied. Number only.

[[record]]
molecule = "CCC(C)[C@H](NC(=O)[C@H]1CCCCN1C)C(=O)N(C)[C@H](C[C@@H](OC(C)=O)c1nc(C(=O)N[C@@H](Cc2ccccc2)C[C@H](C)C(=O)O)cs1)C(C)C (some centres unmarked) [WZY-III-63C, trifluoroacetic acid salt]"
measured_on = "bovine brain tubulin (vinca domain)"
unit_descriptor = "%"
measurement = 50


Form: molecule = CC[C@]1(O)C[C@H]2CN(CCc3c([nH]c4ccccc34)[C@@](C(=O)OC)(c3cc4c(cc3OC)N(C=O)[C@H]3[C@@](O)(C(=O)OC)[C@H](OC(C)=O)[C@]5(CC)C=CCN6CC[C@]43[C@@H]65)C2)C1 [vincristine, reference compound] ; % Inhibition of [3H]vinblastine binding by 5 μM test agent = 65

Form: molecule = CCC(C)[C@H](NC(=O)CN(C)C)C(=O)N(C)[C@H](C[C@@H](OC(C)=O)c1nc(C(=O)N[C@@H](Cc2ccccc2)C[C@H](C)C(=O)O)cs1)C(C)C (some centres unmarked) [WZY-III-69A] ; % Inhibition of [3H]vinblastine binding by 5 μM test agent = 43

Form: molecule = CC[C@H](C)[C@@H]([C@@H](CC(=O)N1CCC[C@H]1[C@H](OC)[C@@H](C)C(=O)N[C@@H](Cc1ccccc1)c1nccs1)OC)N(C)C(=O)[C@@H](NC(=O)[C@H](C(C)C)N(C)C)C(C)C [dolastatin 10, reference compound] ; % Inhibition of [3H]vinblastine binding by 5 μM test agent = 61

Form: molecule = CCC(C)[C@H](NC(=O)CN(C)C)C(=O)N(C)[C@H](C[C@H](OC(C)=O)c1nc(C(=O)N[C@@H](Cc2ccccc2)C[C@H](C)C(=O)O)cs1)C(C)C (some centres unmarked) [WZY-III-64A] ; % Inhibition of [3H]vinblastine binding by 5 μM test agent = 2
